These entries and their values trace back to ChEMBL document CHEMBL1134157.

TEST_SYSTEM: 72 kDa type IV collagenase (Homo sapiens, UniProt P08253)
Sequence (P08253 whole entry): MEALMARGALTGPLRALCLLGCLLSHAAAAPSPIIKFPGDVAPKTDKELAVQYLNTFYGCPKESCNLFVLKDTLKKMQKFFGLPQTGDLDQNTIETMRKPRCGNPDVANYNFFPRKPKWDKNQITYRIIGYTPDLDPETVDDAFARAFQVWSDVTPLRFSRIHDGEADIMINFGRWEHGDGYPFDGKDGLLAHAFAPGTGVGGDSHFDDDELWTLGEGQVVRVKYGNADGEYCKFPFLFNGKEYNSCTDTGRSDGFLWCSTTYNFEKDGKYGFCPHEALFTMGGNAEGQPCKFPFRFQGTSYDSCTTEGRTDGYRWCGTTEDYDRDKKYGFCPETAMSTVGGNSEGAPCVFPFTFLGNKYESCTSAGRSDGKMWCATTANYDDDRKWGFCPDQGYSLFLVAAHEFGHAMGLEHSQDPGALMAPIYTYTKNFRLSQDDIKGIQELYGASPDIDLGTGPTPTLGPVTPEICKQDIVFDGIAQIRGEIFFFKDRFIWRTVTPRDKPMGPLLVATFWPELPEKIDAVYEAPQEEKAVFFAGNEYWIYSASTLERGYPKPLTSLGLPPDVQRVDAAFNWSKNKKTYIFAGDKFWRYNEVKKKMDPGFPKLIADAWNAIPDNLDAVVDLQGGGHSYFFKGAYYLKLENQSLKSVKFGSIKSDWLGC
pIC50: −log10 of the molar value.
OUTCOME_MEASURE: pIC50

- COMPOUND: "O=C(NO)C(CCCN1C(=O)c2ccccc2C1=O)COc1ccc(-c2ccccc2)cc1 (centres undefined)"
  READING: 7.09
- COMPOUND: "N#Cc1ccc(-c2ccc(OCCC(=O)NO)cc2)cc1"
  READING: 7.31
- COMPOUND: "O=C(NO)C(CCn1nnc2ccccc2c1=O)COCCc1ccc(-c2ccc(Cl)cc2)cc1 (centres undefined)"
  READING: 7.60
- COMPOUND: "O=C(NO)C(CCN1C(=O)c2ccccc2S1(=O)=O)COc1ccc(-c2ccccc2)cc1 (centres undefined)"
  READING: 8.15

###

Items are presented alongside their recorded pIC50.
TEST_SYSTEM: Interstitial collagenase (Homo sapiens)
Sequence (P03956 whole entry): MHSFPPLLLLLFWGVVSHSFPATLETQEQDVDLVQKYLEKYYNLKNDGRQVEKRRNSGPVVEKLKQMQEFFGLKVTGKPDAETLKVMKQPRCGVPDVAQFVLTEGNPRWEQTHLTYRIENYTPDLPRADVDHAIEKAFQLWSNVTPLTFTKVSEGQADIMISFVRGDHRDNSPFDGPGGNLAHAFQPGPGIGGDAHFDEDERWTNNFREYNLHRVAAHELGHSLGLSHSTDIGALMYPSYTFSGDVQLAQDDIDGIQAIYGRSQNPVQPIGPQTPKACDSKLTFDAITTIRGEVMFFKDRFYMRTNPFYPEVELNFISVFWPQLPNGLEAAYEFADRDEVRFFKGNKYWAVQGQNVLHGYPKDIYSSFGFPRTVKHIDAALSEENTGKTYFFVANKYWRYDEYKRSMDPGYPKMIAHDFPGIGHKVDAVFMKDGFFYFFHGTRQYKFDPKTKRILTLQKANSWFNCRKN
METHOD: Inhibition of Matrix metalloprotease-1
pIC50: −log10 of the molar value.

- COMPOUND: "O=C(NO)C(CCn1ncc2ccccc2c1=O)COc1ccc(-c2ccccc2)cc1 (centres undefined)"
  pIC50: "< 5.00"
- COMPOUND: "N#Cc1ccc(-c2ccc(OCCC(=O)NO)cc2)cc1"
  pIC50: "< 8.00"
- COMPOUND: "O=C(NO)C(CCCN1C(=O)c2ccccc2C1=O)COc1ccc(-c2ccccc2)cc1 (centres undefined)"
  pIC50: "< 6.00"
- COMPOUND: "O=C(NO)C(CCN1C(=O)c2ccccc2S1(=O)=O)COc1ccc(-c2ccccc2)cc1 (centres undefined)"
  pIC50: "< 4.00"
